Biological target: WT Spike (SARS-CoV2, UniProt P0DTC2 16-1213)

| binder | Kd / pM |
| --- | --- |
| RBD-R3-E1-F5 Ab (Ab_36) (scFv, V domains shown) VH: QVQLQQSGPGLVKPSQTLSLTCAIFGDSVTSNSAAWNWIRQSPSRGLEWLGRTYYSSKWYNDYAVSVKSRVTINADTSKNQLSLQLNSVTPEDTAVYYCARGWLRLSFDPWGQGTLVTVSS VL: NFMLTQPHSVSESPGKTVTISCTGSSGSIASNYVQWLQQRLGSAPTTVIYEDNQRPSGVPDRFSGSIDSSSNSASLTISGLKTEDEADYYCQSYDPNNHGVVFGGGTKLTVL | 9.01 |
